Consider the following binders and their measured Phosphorylation-Inducing Activity (KIRA), midpoint concentration readings.
target: gD-KDR receptor on CHO cells (UniProt P35968 20-1356); assay: cell-based or functional assay
measured_metric: Phosphorylation-Inducing Activity (KIRA), midpoint concentration (nM)

LK-VRB-3s (ligand, human, UniProt P15692-4 27-135, looked up) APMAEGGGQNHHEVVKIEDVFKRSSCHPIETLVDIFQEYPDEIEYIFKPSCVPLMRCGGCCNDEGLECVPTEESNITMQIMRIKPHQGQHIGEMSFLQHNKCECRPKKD; 2
native VEGF (8-109) (ligand, human, UniProt P15692 214-315, looked up, biotinylated where used as tracer) GQNHHEVVKFMDVYQRSYCHPIETLVDIFQEYPDEIEYIFKPSCVPLMRCGGCCNDEGLECVPTEESNITMQIMRIKPHQGQHIGEMSFLQHNKCECRPKKD; 2
LK-VRB-4s (ligand, human, UniProt P15692-4 27-135, looked up) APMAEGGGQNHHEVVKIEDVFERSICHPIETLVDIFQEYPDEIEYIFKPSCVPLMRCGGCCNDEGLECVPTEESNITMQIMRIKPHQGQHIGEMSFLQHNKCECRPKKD; 1
LK-VRB-5s (ligand, human, UniProt P15692-4 27-135, looked up) APMAEGGGQNHHEVVKFMDVYQRSYCHPIETLVDIFQEYPDEIEYIFKPSCVPLMRCGGCCNSEGRECVPTEESNITMQIMRIKPHQGQHIGEMSFLQHNKCECRPKKD; 1
LK-VRB-2s* (ligand, human, UniProt P15692-4 27-135, looked up, also called KDR selective variant) APMAEGGGQNHHEVVKFMDVYQRSYCHPIETLVDIFQEYPDEIEYIFKPSCVPLMRCGGCCNSEMRECVPTEESNITMQIMRIKPHQGQHIGEMSFLQHNKCECRPKKD; 2
LK-VRB-1s* (ligand, human, UniProt P15692-4 27-135, looked up) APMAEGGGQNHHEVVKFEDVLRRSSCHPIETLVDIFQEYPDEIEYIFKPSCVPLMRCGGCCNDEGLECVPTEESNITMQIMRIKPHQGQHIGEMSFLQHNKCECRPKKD; 1
LK-VRB-6s (ligand, human, UniProt P15692-4 27-135, looked up) APMAEGGGQNHHEVVKFMDVYQRSYCHPIETLVDIFQEYPDEIEYIFKPSCVPLMRCGGCCNSEATECVPTEESNITMQIMRIKPHQGQHIGEMSFLQHNKCECRPKKD; 1

Data credit: patent US20060269997A1
